molecular target: Amyloid-beta precursor protein (Homo sapiens); test: Inhibition of HFIP-pretreated amyloid beta (1 to 42) (unknown origin) self-induced aggregation at 20 uM after 46 to 48 hrs by thioflavin-T fluorescence assay relative to control
readout.label: inhibition (%)
Answers are plain numbers, in %.

>  <smiles.entry>
Cc1ccc(O)c(/N=C/c2coc3ccc(Br)cc3c2=O)c1

>  <measure.unit>
%

>  <inhibition>
89.5

$$$$

Give inhibition for all compounds that follow.
1. O=c1c(/C=N/c2ncccc2O)coc2ccc(Br)cc12
2. O=c1c(/C=N/c2cc(F)ccc2O)coc2ccccc12

69.8
64.5

Give inhibition for all compounds that follow.
1. O=c1c(/C=N/c2ccccc2O)coc2ccccc12
2. O=c1c(/C=N/c2cc(Cl)ccc2O)coc2ccc(Br)cc12
3. Cc1ccc(/N=C/c2coc3ccc(C)cc3c2=O)c(O)c1
4. Cc1ccc2occ(/C=N/c3cc([N+](=O)[O-])ccc3O)c(=O)c2c1
5. O=c1c(/C=N/c2ncccc2O)coc2ccccc12
6. Cc1ccc2occ(/C=N/c3cc(F)ccc3O)c(=O)c2c1
7. Cc1ccc(O)c(/N=C/c2coc3ccccc3c2=O)c1

[65.2, 72.1, 45.6, 71.2, 70.8, 87.3, 58.1]

Give inhibition for all compounds that follow.
1. Cc1ccc2occ(/C=N/c3ccc(Cl)cc3O)c(=O)c2c1
2. O=c1c(/C=N/c2ccc(F)cc2O)coc2ccc(Br)cc12

48.3
71.5

###

Kindly state Papp at 18 h, 25 ug/ml for each of the entries shown.
experiment: physchem; conditions: PAMPA, pH 7.4

>  <compound>
NCCc1ccc(O)c(O)c1 [DOPAMINE]

>  <readout.label>
Papp at 18 h, 25 ug/ml

>  <obs.value>
0.8 ×10⁻⁶ cm/s

$$$$

Here is the next item to consider.
For the compound shown here, CCn1cc(C(=O)O)c(=O)c2cc(F)c(N3CCNC(C)C3)c(F)c21 (configuration not stated) [LOMEFLOXACIN] , give the reported Papp at 18 h, 25 ug/ml.
1.9 ×10⁻⁶ cm/s

###

Kindly state Ratio IC50 for each of the entries shown.
species: Homo sapiens; assay: Selectivity index, ratio of IC50 for recombinant human MAO-A expressed in baculovirus infected BTI insect cells to IC50 for recombinant human MAO-B expressed in baculovirus infected BTI insect cells
One number for each entry.

Below, each entry is followed by its recorded Ratio IC50 result.
>  <smiles.entry>
O=c1c(/C=N/c2ccc(Cl)cc2O)coc2ccc(Br)cc12

>  <obs.value>
2.47

$$$$
>  <smiles.entry>
O=c1c(/C=N/c2cc(F)ccc2O)coc2ccc(Br)cc12

>  <obs.value>
3.75

$$$$
>  <smiles.entry>
O=c1c(/C=N/c2cccc(Cl)c2O)coc2ccc(Br)cc12

>  <obs.value>
1.97

$$$$
>  <smiles.entry>
Cc1ccc2occ(/C=N/c3ncccc3O)c(=O)c2c1

>  <obs.value>
3.62

$$$$
>  <smiles.entry>
O=c1c(/C=N/c2ccc(F)cc2O)coc2ccc(Br)cc12

>  <obs.value>
3.56

$$$$
>  <smiles.entry>
Cc1ccc(/N=C/c2coc3ccc(C)cc3c2=O)c(O)c1

>  <obs.value>
0.97

$$$$

For the compound shown here, `O=c1c(/C=N/c2cccc(Cl)c2O)coc2ccccc12` , give the reported Ratio IC50.
0.11

###

molecular target: UniProtKB P27338; test: biochemical
Sequence (P27338 whole entry): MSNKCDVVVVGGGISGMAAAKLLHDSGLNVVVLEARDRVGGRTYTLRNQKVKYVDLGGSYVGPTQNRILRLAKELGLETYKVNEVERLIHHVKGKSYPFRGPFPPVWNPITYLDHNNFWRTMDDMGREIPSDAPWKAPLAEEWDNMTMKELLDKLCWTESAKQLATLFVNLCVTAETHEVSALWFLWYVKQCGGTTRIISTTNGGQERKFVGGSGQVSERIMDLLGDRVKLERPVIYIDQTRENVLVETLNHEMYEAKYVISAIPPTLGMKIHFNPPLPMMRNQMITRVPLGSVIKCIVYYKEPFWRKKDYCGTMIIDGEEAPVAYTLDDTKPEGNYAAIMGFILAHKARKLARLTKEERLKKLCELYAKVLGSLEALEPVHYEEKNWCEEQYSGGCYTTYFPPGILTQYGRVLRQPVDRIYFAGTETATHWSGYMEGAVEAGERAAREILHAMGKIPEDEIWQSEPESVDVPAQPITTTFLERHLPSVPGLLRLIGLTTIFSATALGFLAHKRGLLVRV
Description: Inhibition of recombinant human MAO-B expressed in baculovirus infected BTI insect cells using p-tyramine as substrate pretreated for 15 mins followed by substrate addition after 20 mins by Amplex red reagent based fluorimetric method
readout.label: pIC50
One number for each entry, as −log10 of the molar value.

Below, each entry is followed by its recorded pIC50 result.
>  <smiles.entry>
O=c1c(/C=N/c2ncccc2O)coc2ccccc12

>  <pIC50>
5.65

$$$$
>  <smiles.entry>
O=c1c(/C=N/c2cc(Cl)ccc2O)coc2ccccc12

>  <pIC50>
4.72

$$$$
>  <smiles.entry>
O=c1c(/C=N/c2cccc(Cl)c2O)coc2ccc(Br)cc12

>  <pIC50>
5.64

$$$$

Here is the next item to consider.
Request body: readout pIC50, system UniProtKB P27338, query `Cc1ccc2occ(/C=N/c3ncccc3O)c(=O)c2c1` . Return the value.
5.69
